The measurements presented in this section are drawn from patent US20240279281A1.

We begin with a simple list: items and their reported PBMC pSTAT3 IC50.
- tested on: T1, interleukin-23 receptor (IL-23R), Q5VWK5
- T1 chain: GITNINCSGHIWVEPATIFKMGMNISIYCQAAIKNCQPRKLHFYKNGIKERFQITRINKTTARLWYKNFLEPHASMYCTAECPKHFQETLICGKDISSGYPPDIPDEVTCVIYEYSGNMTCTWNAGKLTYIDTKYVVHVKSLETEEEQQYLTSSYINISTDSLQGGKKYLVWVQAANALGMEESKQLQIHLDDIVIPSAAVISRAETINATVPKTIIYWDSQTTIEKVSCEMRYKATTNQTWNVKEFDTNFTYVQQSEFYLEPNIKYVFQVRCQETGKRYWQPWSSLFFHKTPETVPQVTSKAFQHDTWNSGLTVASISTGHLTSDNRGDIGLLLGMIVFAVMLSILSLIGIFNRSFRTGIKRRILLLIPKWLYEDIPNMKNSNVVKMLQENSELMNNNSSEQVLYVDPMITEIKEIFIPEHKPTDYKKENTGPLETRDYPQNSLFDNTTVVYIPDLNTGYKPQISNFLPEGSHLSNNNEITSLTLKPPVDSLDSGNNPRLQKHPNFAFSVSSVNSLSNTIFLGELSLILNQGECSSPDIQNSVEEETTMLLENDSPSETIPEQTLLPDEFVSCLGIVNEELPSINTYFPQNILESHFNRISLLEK
- experimental protocol: cell-based or functional assay
Positions of bridges follow the written chain, without caps; N, C: chain ends. Non-standard residues stand in square brackets, D forms with d. No end group written: not given here. 2Nal(6-OH) = N[C@@H](Cc1ccc2cc(O)ccc2c1)C(=O)O; Trp(7-Me) = Cc1cccc2c(C[C@H](N)C(=O)O)c[nH]c12; AEF = NCCOc1ccc(C[C@H](N)C(=O)O)cc1; 3Pal = N[C@@H](Cc1cccnc1)C(=O)O; Lipidated = not defined here; Pen = CC(C)(S)[C@H](N)C(=O)O; lipid = not defined here; Thp = NC1(C(=O)O)CCOCC1; Sar = CNCC(=O)O

binder: [Pen]NT[Trp(7-Me)]K(Ac)[Pen][2‑amino‑3‑(4-(2-aminoethoxy)phenyl)propanoic acid][2‑amino‑3‑(6-hydroxynaphthalen-2-yl)propanoic acid][Thp]K(Lipidated)N[3Pal][Sar] (disulfide 1-6 (inferred); ends not checked; also: K10 lipidated lysine, lipid not given here) [SEQ ID NO: 186]
PBMC pSTAT3 IC50: < 1 nM

binder: [Pen]K(lipid)T[Trp(7-Me)]K(Ac)[Pen][2‑amino‑3‑(4-(2-aminoethoxy)phenyl)propanoic acid][2‑amino‑3‑(6-hydroxynaphthalen-2-yl)propanoic acid][Thp]EN[3Pal][Sar] (disulfide 1-6 (inferred); ends not checked; also: K2: lipidated lysine) [SEQ ID NO: 276]
PBMC pSTAT3 IC50: < 1 nM

binder: R[Pen]ET[Trp(7-Me)]K(Ac)[Pen][AEF][2Nal(6-OH)][Thp]K(Ac)N[3Pal][Sar] (not fully specified (bridges); ends and bridges not checked) [SEQ ID NO: 422]
PBMC pSTAT3 IC50: < 0.01 nM
